Test: Microsomal turnover, human liver microsomes
Assay type: in vitro ADME
Conditions: % remaining after 30 min, 1 μM compound
readoutKind: HLM % rem (%)

>>> print(df.to_string())
                                   molecule  unitabbrev  recordedvalue
0  N[C@H]1CC[C@H](Nc2ccc3ncc(-c4cnn(-c5ccc(F)cc5)c4)n3n2)CC1 [Compound 29]           %             80
1  Fc1ccc(-n2cc(-c3cnn4ccc(C5CCCNC5)nc34)cn2)cc1 (stereo not shown) [Compound 34]           %             80
2  CN1CCC(Nc2ccc3ncc(-c4cnn(-c5cccc(C#N)c5)c4)n3n2)CC1 [Compound 37]           %             70
3  CN1CCC(Nc2ccc3ncc(-c4cnn(-c5cnccn5)c4)n3n2)CC1 [Compound 26]           %             66
